What EC50 was measured for each of the following?
tested on: Cdc7 (pS53MCM2 levels in HCT116 cells); test: Cdc7 Cell Pharmacodynamics Assay Method 1: pS53MCM2 levels in HCT116 cells, 6 hours; type: cell-based; conditions: Homo sapiens, HCT-116, 6 h, read-out: Biomarker Method 1 (pEC50) (converted)
Numbers only, in nM.

Here's what some known entries look like.
{"Molecule": "O=c1[nH]c(-c2ccnc(F)c2)nc(N2CCOCC2)c1Cl", "EC50 (nM)": 39.8}
{"Molecule": "CC(F)(F)[C@H]1CN(c2nc(-c3ccnc(F)c3)[nH]c(=O)c2Cl)CCN1", "EC50 (nM)": 63.1}
{"Molecule": "CC(C)C1CN(c2nc(-c3ccnc(F)c3)[nH]c(=O)c2Cl)CCN1 (stereo not drawn)", "EC50 (nM)": 58.9}
{"Molecule": "O=c1[nH]c(-c2ccncc2)nc(N2CCC(F)CC2)c1Cl", "EC50 (nM)": 70.8}
{"Molecule": "CC(C)CN1CCC(c2nc(-c3ccnc(F)c3)[nH]c(=O)c2Cl)CC1", "EC50 (nM)": 148}
{"Molecule": "C[C@H]1CN(c2nc(-c3ccncc3)[nH]c(=O)c2Cl)CCN1CC(F)(F)F", "EC50 (nM)": 132}

Hi, could you look up EC50 for each item in my list?
1. CC(C)[C@H]1CN(c2nc(-c3ccnc(F)c3)[nH]c(=O)c2Cl)CCN1
2. O=c1[nH]c(-c2ccncc2)nc(N2CCN(c3cccnc3)CC2)c1Cl

1: 31.6; 2: 603

====

target: Cdc7/Dbf4 (Homo sapiens, UniProt O00311); experiment: Cdc7 Biochemical Assay Method 3: Cdc7/Dbf4 Enzyme TR-FRET Assay measuring pS40MCM2; details: 1 μM ATP, read-out: Biochemical Method 3 (pIC50) (converted)
Sequence (O00311 whole entry): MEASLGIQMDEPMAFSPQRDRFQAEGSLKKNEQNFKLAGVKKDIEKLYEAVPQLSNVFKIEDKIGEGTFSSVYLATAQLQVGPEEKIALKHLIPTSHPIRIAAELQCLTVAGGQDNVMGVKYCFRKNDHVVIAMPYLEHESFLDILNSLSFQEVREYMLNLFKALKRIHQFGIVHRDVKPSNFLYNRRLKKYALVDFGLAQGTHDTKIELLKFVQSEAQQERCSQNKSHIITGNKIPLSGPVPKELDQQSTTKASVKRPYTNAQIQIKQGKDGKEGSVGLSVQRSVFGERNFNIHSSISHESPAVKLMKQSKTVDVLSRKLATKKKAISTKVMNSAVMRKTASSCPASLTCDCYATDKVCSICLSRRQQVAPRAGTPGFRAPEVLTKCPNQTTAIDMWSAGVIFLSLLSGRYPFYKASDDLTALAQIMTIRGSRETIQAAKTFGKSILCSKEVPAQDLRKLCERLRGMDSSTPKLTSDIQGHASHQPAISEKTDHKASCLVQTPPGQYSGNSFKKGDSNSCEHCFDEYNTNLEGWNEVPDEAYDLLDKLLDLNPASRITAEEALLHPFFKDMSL
Sequence (Q9UBU7 whole entry partner): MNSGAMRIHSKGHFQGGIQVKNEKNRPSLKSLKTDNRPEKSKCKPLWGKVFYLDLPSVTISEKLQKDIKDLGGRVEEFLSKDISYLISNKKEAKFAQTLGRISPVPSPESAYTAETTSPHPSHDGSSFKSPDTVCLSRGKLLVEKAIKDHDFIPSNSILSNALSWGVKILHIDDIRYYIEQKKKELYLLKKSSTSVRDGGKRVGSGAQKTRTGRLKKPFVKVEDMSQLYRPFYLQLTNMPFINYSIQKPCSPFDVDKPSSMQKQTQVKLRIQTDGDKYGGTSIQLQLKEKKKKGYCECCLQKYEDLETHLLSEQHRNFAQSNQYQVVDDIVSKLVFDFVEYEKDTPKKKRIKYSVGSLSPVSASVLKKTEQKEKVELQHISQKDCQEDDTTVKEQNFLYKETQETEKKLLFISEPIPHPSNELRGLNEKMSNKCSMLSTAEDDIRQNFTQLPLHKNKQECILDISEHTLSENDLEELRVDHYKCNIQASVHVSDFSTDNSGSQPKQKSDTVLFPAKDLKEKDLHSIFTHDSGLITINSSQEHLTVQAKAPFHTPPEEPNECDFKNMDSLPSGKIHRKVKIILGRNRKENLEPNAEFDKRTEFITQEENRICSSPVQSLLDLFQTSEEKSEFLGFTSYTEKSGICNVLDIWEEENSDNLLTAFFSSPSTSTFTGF
Measured attribute: IC50
A complete answer gives the number and then names the unit.

Here's what some known entries look like.
{"Molecule": "O=c1[nH]c(-c2ccncc2)nc(N2CCN[C@H](C(F)(F)F)C2)c1Cl", "IC50": "4.07 nM"}
{"Molecule": "C[C@]1(N)CCN(c2nc(-c3ccnc(F)c3)[nH]c(=O)c2Cl)C1", "IC50": "0.646 nM"}
{"Molecule": "CN1CCN(C2CCN(c3nc(-c4ccnc(F)c4)[nH]c(=O)c3Cl)CC2)CC1", "IC50": "4.07 nM"}
{"Molecule": "O=c1[nH]c(-c2ccnc(F)c2)nc(N2CCNCC2)c1Cl", "IC50": "0.871 nM"}
{"Molecule": "CNC(=O)C1CCN(c2nc(-c3ccnc(F)c3)[nH]c(=O)c2Cl)CC1", "IC50": "2.88 nM"}
{"Molecule": "O=c1[nH]c(-c2ccnc(F)c2)nc(CN2CCNCC2)c1Cl", "IC50": "295 nM"}
{"Molecule": "O=c1[nH]c(-c2ccnc(F)c2)nc(C2CCOCC2)c1Cl", "IC50": "0.759 nM"}
{"Molecule": "CO[C@@H]1CCCN(c2nc(-c3ccnc(F)c3)[nH]c(=O)c2Cl)C1", "IC50": "2.63 nM"}

Hi, could you look up IC50 for each item in my list?
1. NC1CN(c2nc(-c3ccnc(F)c3)[nH]c(=O)c2Cl)C1
2. O=c1[nH]c(-c2ccnc(F)c2)nc(N2CCCNCC2)c1Cl
3. CC(=O)NC1CCN(c2nc(-c3ccnc(F)c3)[nH]c(=O)c2Cl)CC1
4. N[C@@H]1CN(c2nc(-c3ccnc(F)c3)[nH]c(=O)c2Cl)CC[C@H]1O
5. CC[C@@H]1COCCN1c1nc(-c2ccnc(F)c2)[nH]c(=O)c1Cl

1. 11.2 nM
2. 0.0977 nM
3. 1.02 nM
4. 1.2 nM
5. 1.1 nM

Hi, could you look up IC50 for each item in my list?
1. O=c1[nH]c(-c2ccnc(F)c2)nc(N2C[C@H]3NCCO[C@@H]3C2)c1Cl
2. O=c1[nH]c(-c2ccnc(F)c2)nc(N2CCOC3CNCC32)c1Cl (stereo not drawn)
3. NC(=O)[C@H]1CCCN1c1nc(-c2ccnc(F)c2)[nH]c(=O)c1Cl
4. CN(C)[C@H]1CCN(c2nc(-c3ccnc(F)c3)[nH]c(=O)c2Cl)C1
5. O=c1[nH]c(-c2ccnc(F)c2)nc(NC2CCNCC2)c1Cl

7.94 nM
1.7 nM
4.57 nM
5.5 nM
13.5 nM

====

What IC50 was measured for each of the following?
molecular target: Cdc7/ASK (Homo sapiens); experiment: Cdc7 Biochemical Assay Method 1: 384 well ELISA, whole protein substrate MCM2, antibody against Phospho MCM2 (S53); design: purchased; conditions: 2 μM ATP, read-out: Biochemical Method 1 (pIC50) (converted)
Sequence (O00311 whole entry): as the sequence (O00311 whole entry) above
Sequence (Q9UBU7 whole entry partner): as the sequence (Q9UBU7 whole entry partner) above
Answers are plain numbers, in nM.

Here's what some known entries look like.
{"Compound": "O=c1[nH]c(-c2ccncc2)nc(N2CCC(Cc3ccccc3)CC2)c1Cl", "Units label": "nM", "IC50": 52.5}
{"Compound": "O=C(OCc1ccccc1)N1CCN(c2nc(-c3ccncc3)[nH]c(=O)c2Cl)CC1", "Units label": "nM", "IC50": 6.17}
{"Compound": "CC1CN(c2nc(-c3ccncc3)[nH]c(=O)c2Cl)CC(C)O1 (stereo not drawn)", "Units label": "nM", "IC50": 83.2}

Hi, could you look up IC50 for each item in my list?
1. N#Cc1c(C2CCOCC2)nc(-c2ccncc2)[nH]c1=O
2. C#CCN1CCN(c2nc(-c3ccncc3)[nH]c(=O)c2Cl)CC1
3. O=c1[nH]c(-c2ccncc2)nc(N2CCN[C@H](Cc3ccccc3)C2)c1Cl

25.7
14.1
126

====

target: Cdc7/ASK (Homo sapiens); test: Cdc7 Biochemical Assay Method 1: 384 well ELISA, whole protein substrate MCM2, antibody against Phospho MCM2 (S53); parameters: purchased; details: 2 μM ATP, read-out: Biochemical Method 1 (pIC50) (converted)
Measured attribute: log10 IC50 (log10 of the value in nM)
Field: value | Transform: log10 | Quantity: IC50 | Unit: nM

{"Molecule": "O=c1[nH]c(-c2ccncc2)nc(C2=CCOCC2)c1Cl", "Test value": 2.22}
{"Molecule": "O=c1[nH]c(-c2ccnc(F)c2)nc(C2CCOCC2)c1F", "Test value": 0.37}
{"Molecule": "C[C@H]1CN(c2nc(-c3ccncc3)[nH]c(=O)c2Cl)CCN1CC(F)(F)F", "Test value": 0.38}
{"Molecule": "CC(=O)N1CCC(c2nc(-c3ccncc3)[nH]c(=O)c2Cl)CC1", "Test value": 0.91}
{"Molecule": "CC(C)CC1CN(c2nc(-c3ccncc3)[nH]c(=O)c2Cl)CCO1 (stereo not drawn)", "Test value": 2.61}

Hi, could you look up log10 IC50 for each item in my list?
1. O=c1[nH]c(-c2ccncc2)nc(N2CCC(F)(F)CC2)c1Cl
2. Cc1cc(C(=O)N2CCC(c3nc(-c4ccncc4)[nH]c(=O)c3Cl)CC2)n(C)n1
3. NC(=O)[C@H]1CCCN1c1nc(-c2ccncc2)[nH]c(=O)c1Cl
4. Cc1cc(C(=O)N2CCC(c3nc(-c4ccncc4)[nH]c(=O)c3Cl)CC2)[nH]n1

1: 1.66; 2: 0.21; 3: 2.58; 4: 0.42

====

biological target: Cdc7/Dbf4 (Homo sapiens, UniProt O00311); test: Cdc7 Biochemical Assay Method 3: Cdc7/Dbf4 Enzyme TR-FRET Assay measuring pS40MCM2; conditions: 1 μM ATP, read-out: Biochemical Method 3 (pIC50) (converted)
What IC50 was measured for each of the following?
A complete answer gives the number and then names the unit.

Here's what some known entries look like.
{"Compound": "C[C@H]1CCCN1c1nc(-c2ccnc(F)c2)[nH]c(=O)c1Cl", "Measured target": "Cdc7/Dbf4 (Homo sapiens, UniProt O00311)", "IC50": "14.8 nM"}
{"Compound": "N[C@@H]1CCCCN(c2nc(-c3ccnc(F)c3)[nH]c(=O)c2Cl)C1", "Measured target": "Cdc7/Dbf4 (Homo sapiens, UniProt O00311)", "IC50": "0.513 nM"}

Hi, could you look up IC50 for each item in my list?
1. O=c1[nH]c(-c2ccnc(F)c2)nc(N2CCCC23CCNCC3)c1Cl
2. O=c1[nH]c(-c2ccnc(F)c2)nc(N2CCN(CC(F)F)CC2)c1Cl
3. O=c1[nH]c(-c2ccnc(F)c2)nc(SC2CCNCC2)c1Cl
4. O=C1CCN(c2nc(-c3ccnc(F)c3)[nH]c(=O)c2Cl)CCN1

["11 nM", "2.19 nM", "2.88 nM", "0.933 nM"]

Hi, could you look up IC50 for each item in my list?
1. O=c1[nH]c(-c2ccnc(F)c2)nc(OCc2ccccc2)c1Cl
2. CC1(F)CNCCN(c2nc(-c3ccnc(F)c3)[nH]c(=O)c2Cl)C1 (stereo not drawn)
3. O=c1[nH]c(-c2ccncc2)nc(N2CC(F)(F)OC(F)(F)C2)c1Cl

1: 182 nM; 2: 1.38 nM; 3: 1.38 nM
